# protocol: Quantitative determination of BLZ945 in blood and brain (LC-MS-MS)
# Format: in vivo
# cond: C57BL/6J, mouse, brain (cerebellum homogenate) / whole blood (EDTA), po; mice, p.o.; FIG. 11; read-out: brain/blood ratio
measurement-kind: Kp at 3 h

Prompt: For the compound `CNC(=O)c1cc(Oc2ccc3nc(N[C@@H]4CCCC[C@H]4O)sc3c2)ccn1` , give its measured Kp at 3 h value.
Response: 0.3 to 0.6
